# reported PI; entries follow
- System: TRFP primed T cell cultures
- Experiment Summary: T cell proliferation assay (tritiated thymidine incorporation) of TRFP-primed T cells restimulated with allergens or peptides
- Type: cell-based, human
- Experimental Context: Chain #1 TRFP peptides; cat allergic patients; average SI of all responding patients multiplied by percent of patients with a positive response
Number only, please.

Substance	Test Value
Fel 3-1: TRFP chain 1 peptide, amino acids 18 - 33 (PDEYVEQVAQYKALPV; UniProt P30438 40-55, looked up, fragment)	638
Fel 3-15: TRFP chain 1 peptide, amino acids 18 - 29 (PDEYVEQVAQYK; UniProt P30438 40-51, looked up, fragment)	1040
Fel 30-4: TRFP chain 1 peptide, amino acids 29 - 55 (KALPVVLENARILKNCVDAKMTEEDKE; UniProt P30438 51-77, looked up, fragment)	1079
Fel 30-3: TRFP chain 1 peptide, amino acids 25 - 47 (VAQYKALPVVLENARILKNCVDA; UniProt P30438 47-69, looked up, fragment)	230

# get_value(readout='PI', item= Fel 30-2: TRFP chain 1 peptide, amino acids 25 - 48 (VAQYKALPVVLENARILKNCVDAK; UniProt P30438 47-70, looked up, fragment) )
248

# get_value(readout='PI', item= Fel 3-13: TRFP chain 1 peptide, amino acids 18 - 28 (PDEYVEQVAQY; UniProt P30438 40-50, looked up, fragment) )
690

====

- Tested on: TRFP primed T cell cultures
- Experiment Summary: T cell proliferation assay (tritiated thymidine incorporation) of TRFP-primed T cells restimulated with allergens or peptides
- Assay type: cell-based, human
- Experimental Context: Chain #1 TRFP peptides; cat allergic patients; average SI of all responding patients multiplied by percent of patients with a positive response
Criterion: PI meeting or surpassing 300. Met: 1. Not met: 0.

Use these answered entries as a reference point.
Substance	Cat
Fel 23: TRFP chain 1 peptide, amino acids 51 - 66 (EEDKENALSVLDKIYT; UniProt P30438 73-88, looked up, fragment)	1
Fel 1-2: TRFP chain 1 peptide, amino acids 1 - 17 (EICPAVKRDVDLFLTGT; UniProt P30438 23-39, looked up, fragment)	1
Fel 30-5: TRFP chain 1 peptide, amino acids 29 - 54 (KALPVVLENARILKNCVDAKMTEEDK; UniProt P30438 51-76, looked up, fragment)	1
Fel 14-5: TRFP chain 1 peptide, amino acids 27 - 36 (QYKALPVVLE; UniProt P30438 49-58, looked up, fragment)	0

Test whether the substance Fel 14: TRFP chain 1 peptide, amino acids 18 - 43 (PDEYVEQVAQYKALPVVLENARILKN; UniProt P30438 40-65, looked up, fragment) records PI of 300 or higher.
1
